experimentalSystem: Amyloid-beta precursor protein (Homo sapiens) (UniProt P05067)
Sequence (P05067 whole entry): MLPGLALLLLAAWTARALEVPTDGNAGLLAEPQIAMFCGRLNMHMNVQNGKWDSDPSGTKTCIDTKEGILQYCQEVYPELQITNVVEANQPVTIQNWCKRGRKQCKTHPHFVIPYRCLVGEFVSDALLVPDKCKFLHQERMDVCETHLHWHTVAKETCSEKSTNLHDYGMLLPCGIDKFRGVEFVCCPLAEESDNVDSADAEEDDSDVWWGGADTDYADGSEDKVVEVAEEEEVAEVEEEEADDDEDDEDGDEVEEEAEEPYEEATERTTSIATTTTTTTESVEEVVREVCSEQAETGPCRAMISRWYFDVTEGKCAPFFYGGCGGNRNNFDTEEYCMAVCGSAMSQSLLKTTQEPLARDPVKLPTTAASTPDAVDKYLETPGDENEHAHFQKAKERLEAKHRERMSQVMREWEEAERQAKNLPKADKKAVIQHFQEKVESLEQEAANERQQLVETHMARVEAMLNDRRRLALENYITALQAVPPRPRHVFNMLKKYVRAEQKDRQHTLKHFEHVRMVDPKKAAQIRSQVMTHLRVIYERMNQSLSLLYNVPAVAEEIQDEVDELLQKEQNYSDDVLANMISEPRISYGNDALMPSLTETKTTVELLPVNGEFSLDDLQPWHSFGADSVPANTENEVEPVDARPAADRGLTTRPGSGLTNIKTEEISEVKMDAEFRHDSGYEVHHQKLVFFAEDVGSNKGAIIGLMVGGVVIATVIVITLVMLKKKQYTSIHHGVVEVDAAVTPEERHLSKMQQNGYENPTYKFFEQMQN
assaySummary: Inhibition of amyloid beta (1 to 42) aggregation in HBP assessed as beta sheet formation at 1:20 protein to compound ratio after 48 hrs by Th-T fluorescence assay relative to control
Set-up: scale not given: the % may be the effect or the level left
*1 amine or outer side, *2 acyl side, *3 side chain or, on linkers, in order; H or OH if unused. Where a SMILES comes first, the peptide text is derived from it. The star is where a group is joined. X12 = O=S(=O)(O)OC[C@H](CN*)OS(=O)(=O)O; X2 = O=S(=O)(O)OC[C@@H](CN*)OS(=O)(=O)O; NH(3-hydroxypropyl) = OCCCN*; X10 = O=C(OC[C@@H](O)CO)*; X11 = O=C(OC[C@H](O)CO)*; X5 = O=S(=O)(O)OCCCN*; CO = O=C([*:1])[*:2]; NH(CH2)4OH = OCCCCN*
endpoint: Activity (%)

[[record]]
molecule = "CC(C)C[C@H](NC(=O)NCCCCO)C(=O)N1CCC[C@H]1C(=O)N[C@@H](Cc1ccccc1)C(=O)N[C@@H](Cc1ccccc1)C(=O)N[C@@H](CC(=O)O)C(N)=O ({NH(CH2)4OH-CO}-LPFFD-NH2)"
experimentalsystem = "Amyloid-beta precursor protein (Homo sapiens) (UniProt P05067)"
observedvalue = 100

[[record]]
molecule = "CC(C)C[C@H](NC(=O)OC[C@H](O)CO)C(=O)N1CCC[C@H]1C(=O)N[C@@H](Cc1ccccc1)C(=O)N[C@@H](Cc1ccccc1)C(=O)N[C@@H](CC(=O)O)C(N)=O (X11-LPFFD-NH2)"
experimentalsystem = "Amyloid-beta precursor protein (Homo sapiens) (UniProt P05067)"
observedvalue = 100

[[record]]
molecule = "CC(C)C[C@H](NC(=O)NC[C@@H](COS(=O)(=O)O)OS(=O)(=O)O)C(=O)N1CCC[C@H]1C(=O)N[C@@H](Cc1ccccc1)C(=O)N[C@@H](Cc1ccccc1)C(=O)N[C@@H](CC(=O)O)C(N)=O ({X12-CO}-LPFFD-NH2)"
experimentalsystem = "Amyloid-beta precursor protein (Homo sapiens) (UniProt P05067)"
observedvalue = 127

[[record]]
molecule = "CC(C)C[C@H](NC(=O)NCCCOS(=O)(=O)O)C(=O)N1CCC[C@H]1C(=O)N[C@@H](Cc1ccccc1)C(=O)N[C@@H](Cc1ccccc1)C(=O)N[C@@H](CC(=O)O)C(N)=O ({X5-CO}-LPFFD-NH2)"
experimentalsystem = "Amyloid-beta precursor protein (Homo sapiens) (UniProt P05067)"
observedvalue = 83

[[record]]
molecule = "CC(C)C[C@H](NC(=O)NCCCO)C(=O)N1CCC[C@H]1C(=O)N[C@@H](Cc1ccccc1)C(=O)N[C@@H](Cc1ccccc1)C(=O)N[C@@H](CC(=O)O)C(N)=O ({NH(3-hydroxypropyl)-CO}-LPFFD-NH2)"
experimentalsystem = "Amyloid-beta precursor protein (Homo sapiens) (UniProt P05067)"
observedvalue = 82.7

[[record]]
molecule = "CC(C)C[C@H](NC(=O)NC[C@H](COS(=O)(=O)O)OS(=O)(=O)O)C(=O)N1CCC[C@H]1C(=O)N[C@@H](Cc1ccccc1)C(=O)N[C@@H](Cc1ccccc1)C(=O)N[C@@H](CC(=O)O)C(N)=O ({X2-CO}-LPFFD-NH2)"
experimentalsystem = "Amyloid-beta precursor protein (Homo sapiens) (UniProt P05067)"
observedvalue = 120

[[record]]
molecule = "CC(C)C[C@H](NC(=O)OC[C@@H](O)CO)C(=O)N1CCC[C@H]1C(=O)N[C@@H](Cc1ccccc1)C(=O)N[C@@H](Cc1ccccc1)C(=O)N[C@@H](CC(=O)O)C(N)=O (X10-LPFFD-NH2)"
experimentalsystem = "Amyloid-beta precursor protein (Homo sapiens) (UniProt P05067)"
observedvalue = 97


====

experimentalSystem: UniProt:P05067
assaySummary: Inhibition of amyloid beta (1 to 42)-mediated cytotoxicity in HBP assessed as cell death at 1:5 protein to compound ratio after 6 days by fluorescence assay relative to control
Design: scale not given: the % may be the effect or the level left
*1 amine or outer side, *2 acyl side, *3 side chain or, on linkers, in order; H or OH if unused. Where a SMILES comes first, the peptide text is derived from it. The star is where a group is joined. X7 = O=C(OC[C@@H](COS(=O)(=O)O)OS(=O)(=O)O)*; X6 = O=C(OC[C@H](COS(=O)(=O)O)OS(=O)(=O)O)*; X12 = O=S(=O)(O)OC[C@H](CN*)OS(=O)(=O)O; X2 = O=S(=O)(O)OC[C@@H](CN*)OS(=O)(=O)O; NH(3-hydroxypropyl) = OCCCN*; X3 = O=C(OCCCOS(=O)(=O)O)*; X10 = O=C(OC[C@@H](O)CO)*; X11 = O=C(OC[C@H](O)CO)*; X9 = O=S(=O)(O)OCCCCN*; X5 = O=S(=O)(O)OCCCN*; CO = O=C([*:1])[*:2]; NH(CH2)4OH = OCCCCN*; X14 = OC[C@H](O)CN*; X4 = OC[C@@H](O)CN*; X13 = O=C(OCCCO)*
Items are presented alongside their recorded Activity.
endpoint: Activity

[[record]]
molecule = "CC(C)C[C@H](NC(=O)OC[C@H](COS(=O)(=O)O)OS(=O)(=O)O)C(=O)N1CCC[C@H]1C(=O)N[C@@H](Cc1ccccc1)C(=O)N[C@@H](Cc1ccccc1)C(=O)N[C@@H](CC(=O)O)C(N)=O (X6-LPFFD-NH2)"
observedvalue = "91.4%"

[[record]]
molecule = "CC(C)C[C@H](NC(=O)OCC(CO)CO)C(=O)N1CCC[C@H]1C(=O)N[C@@H](Cc1ccccc1)C(=O)N[C@@H](Cc1ccccc1)C(=O)N[C@@H](CC(=O)O)C(=O)O"
observedvalue = "81.1%"

[[record]]
molecule = "CC(C)C[C@H](NC(=O)NC[C@H](COS(=O)(=O)O)OS(=O)(=O)O)C(=O)N1CCC[C@H]1C(=O)N[C@@H](Cc1ccccc1)C(=O)N[C@@H](Cc1ccccc1)C(=O)N[C@@H](CC(=O)O)C(N)=O ({X2-CO}-LPFFD-NH2)"
observedvalue = "92%"

[[record]]
molecule = "CC(C)C[C@H](NC(=O)OCCCOS(=O)(=O)O)C(=O)N1CCC[C@H]1C(=O)N[C@@H](Cc1ccccc1)C(=O)N[C@@H](Cc1ccccc1)C(=O)N[C@@H](CC(=O)O)C(N)=O (X3-LPFFD-NH2)"
observedvalue = "107%"

[[record]]
molecule = "CC(C)C[C@H](NC(=O)NCCCOS(=O)(=O)O)C(=O)N1CCC[C@H]1C(=O)N[C@@H](Cc1ccccc1)C(=O)N[C@@H](Cc1ccccc1)C(=O)N[C@@H](CC(=O)O)C(N)=O ({X5-CO}-LPFFD-NH2)"
observedvalue = "95.9%"

[[record]]
molecule = "CC(C)C[C@H](NC(=O)NCCCO)C(=O)N1CCC[C@H]1C(=O)N[C@@H](Cc1ccccc1)C(=O)N[C@@H](Cc1ccccc1)C(=O)N[C@@H](CC(=O)O)C(N)=O ({NH(3-hydroxypropyl)-CO}-LPFFD-NH2)"
observedvalue = "96.1%"

[[record]]
molecule = "CC(C)C[C@H](NC(=O)OCC(COS(=O)(=O)O)CS(=O)(=O)O)C(=O)N1CCC[C@@H]1C(=O)N[C@@H](Cc1ccccc1)C(=O)N[C@@H](Cc1ccccc1)C(=O)N[C@@H](CC(=O)O)C(=O)O (some centres not stated)"
observedvalue = "93.8%"

[[record]]
molecule = "CC(C)C[C@H](NC(=O)NC[C@@H](O)CO)C(=O)N1CCC[C@H]1C(=O)N[C@@H](Cc1ccccc1)C(=O)N[C@@H](Cc1ccccc1)C(=O)N[C@@H](CC(=O)O)C(N)=O ({X14-CO}-LPFFD-NH2)"
observedvalue = "96.6%"

[[record]]
molecule = "CC(C)C[C@H](NC(=O)OCCCO)C(=O)N1CCC[C@H]1C(=O)N[C@@H](Cc1ccccc1)C(=O)N[C@@H](Cc1ccccc1)C(=O)N[C@@H](CC(=O)O)C(N)=O (X13-LPFFD-NH2)"
observedvalue = "93%"

[[record]]
molecule = "CC(C)C[C@H](NC(=O)NC[C@H](O)CO)C(=O)N1CCC[C@H]1C(=O)N[C@@H](Cc1ccccc1)C(=O)N[C@@H](Cc1ccccc1)C(=O)N[C@@H](CC(=O)O)C(N)=O ({X4-CO}-LPFFD-NH2)"
observedvalue = "92.5%"

[[record]]
molecule = "CC(C)C[C@H](NC(=O)OCC(CO)CO)C(=O)N1CCC[C@@H]1C(=O)N[C@@H](Cc1ccccc1)C(=O)N[C@@H](Cc1ccccc1)C(=O)N[C@@H](CC(=O)O)C(=O)O"
observedvalue = "94.8%"

[[record]]
molecule = "CC(C)C[C@H](NC(=O)NC[C@@H](COS(=O)(=O)O)OS(=O)(=O)O)C(=O)N1CCC[C@H]1C(=O)N[C@@H](Cc1ccccc1)C(=O)N[C@@H](Cc1ccccc1)C(=O)N[C@@H](CC(=O)O)C(N)=O ({X12-CO}-LPFFD-NH2)"
observedvalue = "92%"

[[record]]
molecule = "CC(C)C[C@H](NC(=O)NCCCCO)C(=O)N1CCC[C@H]1C(=O)N[C@@H](Cc1ccccc1)C(=O)N[C@@H](Cc1ccccc1)C(=O)N[C@@H](CC(=O)O)C(N)=O ({NH(CH2)4OH-CO}-LPFFD-NH2)"
observedvalue = "99.6%"

[[record]]
molecule = "CC(C)C[C@H](NC(=O)OC[C@@H](COS(=O)(=O)O)OS(=O)(=O)O)C(=O)N1CCC[C@H]1C(=O)N[C@@H](Cc1ccccc1)C(=O)N[C@@H](Cc1ccccc1)C(=O)N[C@@H](CC(=O)O)C(N)=O (X7-LPFFD-NH2)"
observedvalue = "95.9%"

[[record]]
molecule = "CC(C)C[C@H](NC(=O)OC[C@H](O)CO)C(=O)N1CCC[C@H]1C(=O)N[C@@H](Cc1ccccc1)C(=O)N[C@@H](Cc1ccccc1)C(=O)N[C@@H](CC(=O)O)C(N)=O (X11-LPFFD-NH2)"
observedvalue = "91.6%"

[[record]]
molecule = "CC(C)C[C@H](NC(=O)OC[C@@H](O)CO)C(=O)N1CCC[C@H]1C(=O)N[C@@H](Cc1ccccc1)C(=O)N[C@@H](Cc1ccccc1)C(=O)N[C@@H](CC(=O)O)C(N)=O (X10-LPFFD-NH2)"
observedvalue = "89.7%"

[[record]]
molecule = "CC(C)C[C@H](NC(=O)NCCCCOS(=O)(=O)O)C(=O)N1CCC[C@H]1C(=O)N[C@@H](Cc1ccccc1)C(=O)N[C@@H](Cc1ccccc1)C(=O)N[C@@H](CC(=O)O)C(N)=O ({X9-CO}-LPFFD-NH2)"
observedvalue = "96.5%"

